# targetOfAssay: T1, recombinant human IL-12 (rhIL-12) (human, UniProt P29459 23-219; P29460 23-328)
# T1 chain 1: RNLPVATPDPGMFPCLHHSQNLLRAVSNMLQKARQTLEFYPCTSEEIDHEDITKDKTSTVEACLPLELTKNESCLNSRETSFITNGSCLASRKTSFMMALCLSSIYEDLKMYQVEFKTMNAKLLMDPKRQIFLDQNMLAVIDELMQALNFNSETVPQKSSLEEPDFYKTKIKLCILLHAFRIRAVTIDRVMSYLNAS
# T1 chain 2: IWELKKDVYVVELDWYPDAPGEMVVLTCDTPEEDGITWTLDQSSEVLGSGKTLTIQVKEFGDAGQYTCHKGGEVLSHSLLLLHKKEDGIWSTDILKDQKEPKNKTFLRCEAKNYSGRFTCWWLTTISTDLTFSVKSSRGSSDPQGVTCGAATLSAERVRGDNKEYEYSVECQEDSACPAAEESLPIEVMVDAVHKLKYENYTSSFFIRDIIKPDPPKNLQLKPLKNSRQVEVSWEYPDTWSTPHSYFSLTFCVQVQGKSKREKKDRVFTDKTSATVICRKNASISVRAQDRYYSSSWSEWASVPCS
# assayInfo: BIAcore
# key: entry, value: koff
Numbers only; they are read as s⁻¹.

Illustrative cases are given below, each with its answer.
binder	parameterMeasured	uom	experimentalResult
SGGRSNIGRNTVK [Y61 L30 R]	koff	s⁻¹	0.000182
SGGRSNIGPNTVK [Y61 L30 P]	koff	s⁻¹	0.00025

Turning to the following binder.
Notebook: SGGRSNIGSNHVK [Y61 L32 H] , koff read as 0.00026
